TARGET OR SYSTEM: Tau
ASSAY PROCEDURE: rat primary cortical neurons, FLIPR, 25 uM ASO
Bases are written 5' to 3'; sugars and linkages follow in the same order, as letters with counts (s phosphorothioate, o phosphodiester; PS: all linkages phosphorothioate). The collection does not say whether C is 5-methylated. l = locked nucleic acid (LNA); d = 2'-deoxy (DNA)
READOUT TYPE: calcium oscillation score

Write down calcium oscillation score measured for item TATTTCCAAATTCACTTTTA (sugars l3 d14 l3, PS) ≥ 200 % of control

Continuing:
Specify measured calcium oscillation score for GGTCAACTGGTTTGTA (sugars l3 d10 l3, PS) . 55.6 % of control

---

TARGET OR SYSTEM: Tau
ASSAY PROCEDURE: rat primary cortical neurons, FLIPR, 25 uM ASO
Bases are written 5' to 3'; sugars and linkages follow in the same order, as letters with counts (s phosphorothioate, o phosphodiester; PS: all linkages phosphorothioate). The collection does not say whether C is 5-methylated. l = locked nucleic acid (LNA); d = 2'-deoxy (DNA)
Reported calcium oscillation score values for a set of sequences

Study these solved cases before continuing.
Entry ACTTTATTTCCAAATTCACTTTTAC (sugars ldllldddddddddddddddllddl, PS) needs its calcium oscillation score filled in; supply it. 17.7 % of control

Tell me calcium oscillation score reported for ATCAGAGGGTCTGAGC (sugars l3 d10 l3, PS) 59.3 % of control

More entries:
Identify calcium oscillation score associated with the sequence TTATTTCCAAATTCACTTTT (sugars lllddldddddddddlldll, PS) 114 % of control

Supply calcium oscillation score value. Item: CTCTTAGCATCAGAGG (sugars l3 d10 l3, PS) 70.4 % of control

Hello, please tell me recorded calcium oscillation score for this one: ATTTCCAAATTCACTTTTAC (sugars lldlldddddddddllddll, PS) 120 % of control

Respond only with calcium oscillation score recorded for TACACCATCCAAGTCAA (sugars l3 d10 l4, PS) 97 % of control

For GGCGGCGCAGGCGCGA (sugars l3 d10 l3, PS) , write its calcium oscillation score. 49.6 % of control

Answer with the recorded calcium oscillation score for the sequence listed here: TCATTTTTCTCAAGCTCC (sugars l2 d14 l2, PS) 55.8 % of control

Give a short answer stating reported calcium oscillation score for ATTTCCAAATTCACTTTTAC (sugars l4 d11 l5, PS) . 136 % of control

Determine from records and report calcium oscillation score for GATATTCCACACATAA (sugars l4 d8 l4, PS) 54.8 % of control

// Input: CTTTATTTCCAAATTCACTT (sugars l3 d1 l1 d11 l4, PS) . Output its calcium oscillation score only. 129 % of control

In one line, give reported calcium oscillation score of the entry TCCACAAACCAACTCAACAT (sugars l2 d15 l3, PS) . 75.2 % of control

---

// reported calcium oscillation score per item
TARGET OR SYSTEM: Tau
ASSAY PROCEDURE: rat primary cortical neurons, FLIPR, 25 uM ASO
Bases are written 5' to 3'; sugars and linkages follow in the same order, as letters with counts (s phosphorothioate, o phosphodiester; PS: all linkages phosphorothioate). The collection does not say whether C is 5-methylated. l = locked nucleic acid (LNA); d = 2'-deoxy (DNA)

These solved cases illustrate the format of a correct answer.
Recall the reported calcium oscillation score of ACGTGGGTGATATTGTCCAG (sugars l3 d14 l3, PS) on Tau and write it down. 0 % of control

Identify measured calcium oscillation score obtained with Tau for AGCTTTGAGTTGAGGG (sugars l3 d10 l3, PS) . 0 % of control

Report its calcium oscillation score with Tau as the test system: TAGACTCCTTCTTTAGGCTT (sugars l3 d14 l3, PS) 45.2 % of control

# lookup: Tau calcium oscillation score, key = AACCACTCTAACATCTTA (sugars l4 d11 l3, PS) 86.8 % of control

// output calcium oscillation score; input TTGGGTGGAGTACGGA (sugars l3 d10 l3, PS) ; system Tau 0 % of control

***
Output reported calcium oscillation score of the sequence AATTATTTACACTGTCC (sugars l4 d9 l4, PS) on Tau. 55.6 % of control

Report the value of calcium oscillation score obtained on Tau for CTTTAATTTAATCACTCA (sugars l4 d10 l4, PS) . 76.6 % of control

Recall the reported calcium oscillation score of CAATCCTAAACAATGC (sugars l4 d8 l4, PS) on Tau and write it down. 45.4 % of control

# return calcium oscillation score for ACTTTATTTCCAAATTCACT (sugars l4 d11 l5, PS) , test system: Tau 115 % of control

# assay system Tau: give calcium oscillation score of TTTTAACTCCCAACTCTTT (sugars l2 d13 l4, PS) 99.7 % of control

Answer briefly: calcium oscillation score recorded on Tau for AGATCATCCATTTTCTT (sugars l2 d11 l4, PS) 55.3 % of control

State calcium oscillation score (Tau) of CAGCTCTTCCATAAGCAGGG (sugars l3 d14 l3, PS) . 60.6 % of control

State measured calcium oscillation score of the sequence ACCTCATTAAGATCACC (sugars l2 d11 l4, PS) with Tau. 69.7 % of control

---

Measured calcium oscillation score, listed per entry.
TARGET OR SYSTEM: Tau
ASSAY PROCEDURE: rat primary cortical neurons, FLIPR, 25 uM ASO
Bases are written 5' to 3'; sugars and linkages follow in the same order, as letters with counts (s phosphorothioate, o phosphodiester; PS: all linkages phosphorothioate). The collection does not say whether C is 5-methylated. l = locked nucleic acid (LNA); d = 2'-deoxy (DNA)

The following sequences have reported results that may help.
Identify the reported calcium oscillation score for the following entry. CCCCACCCAAACTCCAAG (sugars l1 d15 l2, PS) 46.2 % of control

Using the record for TCCAAAACATTCTCACCAAA (sugars l4 d14 l2, PS) , state its measured calcium oscillation score. 85.7 % of control

Continuing:
Please supply the value of reported calcium oscillation score for the item CCCTTTCAAACCAGCA (sugars l3 d11 l2, PS) 91.8 % of control

---

TARGET OR SYSTEM: Tau
ASSAY PROCEDURE: rat primary cortical neurons, FLIPR, 25 uM ASO
Bases are written 5' to 3'; sugars and linkages follow in the same order, as letters with counts (s phosphorothioate, o phosphodiester; PS: all linkages phosphorothioate). The collection does not say whether C is 5-methylated. l = locked nucleic acid (LNA); d = 2'-deoxy (DNA)
READOUT TYPE: calcium oscillation score

// below: answered sequences
Give calcium oscillation score; test system Tau; sequence CAAGAGTCACTGCACTGCAT (sugars l3 d14 l3, PS) 50 % of control

Name the recorded calcium oscillation score of ATATCATATCCTAAGC (sugars l4 d9 l3, PS) , assay system Tau. 50.9 % of control

State calcium oscillation score on Tau. Entry: TTGAAGTCCCGAGCCAAAGC (sugars l3 d14 l3, PS) 0 % of control

// fetch calcium oscillation score; item: TCCTGTGCTTCAGGCC (sugars l3 d10 l3, PS) ; system: Tau 75.5 % of control

Jot down calcium oscillation score (Tau) of CATTATTCTTTTTTTTTCCA (sugars l4 d14 l2, PS) . 43.3 % of control

Further cases:
Name the recorded calcium oscillation score of CAGATTCCCCAACTCACA (sugars l2 d14 l2, PS) , assay system Tau. 71.5 % of control

Recall the reported calcium oscillation score of CAAATCAATTCTCATTTCAA (sugars l4 d12 l4, PS) when tested on Tau. 65.7 % of control

Provide calcium oscillation score, system Tau, entry TGTAGACTATTTGCAC (sugars l3 d10 l3, PS) 93.3 % of control

Lab note: Tau assay, enter calcium oscillation score for CCAAATTCCTCATAATCCA (sugars l2 d15 l2, PS) here 75 % of control

# return calcium oscillation score of CTTTCATCTACTTTTCAG (sugars l3 d12 l3, PS) (system: Tau) 70.8 % of control

---

TARGET OR SYSTEM: Tau
ASSAY PROCEDURE: rat primary cortical neurons, FLIPR, 25 uM ASO
Bases are written 5' to 3'; sugars and linkages follow in the same order, as letters with counts (s phosphorothioate, o phosphodiester; PS: all linkages phosphorothioate). The collection does not say whether C is 5-methylated. l = locked nucleic acid (LNA); d = 2'-deoxy (DNA)
READOUT TYPE: calcium oscillation score

Provide only the value of recorded calcium oscillation score for ATTTATTCTTTTTATTATTT (sugars l4 d12 l4, PS) 59.6 % of control

More entries:
Please report the measured calcium oscillation score for CACCCACTTTCCTAATTC (sugars l3 d13 l2, PS) 65.6 % of control

Identify measured calcium oscillation score corresponding to CATCAGCCTTCATCACA (sugars l4 d11 l2, PS) 91.8 % of control

Fill in reported calcium oscillation score for this entry: GATTAACCAATTAACC (sugars l3 d10 l3, PS) ≥ 200 % of control

State its calcium oscillation score for this sequence: TCGAAACCAAGGTCCCACCA (sugars l3 d14 l3, PS) 28.2 % of control

Supply recorded calcium oscillation score for AGGCAAAGGTTTATCTTCCA (sugars l3 d14 l3, PS) here. 33 % of control
